The measurements presented in this section are drawn from patent US20250154201A1.

- test.details: in vitro
- measurement.context: human
quantity: viability at 200 µM

For CC[C@H](C)[C@@H]1NC(=O)[C@H]([C@@H](C)O)NC(=O)[C@@H](N)CSSC[C@@H](C(=O)O)NC(=O)[C@H]([C@@H](C)O)NC(=O)[C@H](CC(C)C)NC(=O)[C@H](CO)NC(=O)[C@H](Cc2c[nH]c3ccccc23)NC(=O)[C@H](CC(C)C)NC1=O , what is its reported viability at 200 µM?
~80%
